Target system: Estrogen receptor (Homo sapiens)
Method notes: qHTS assay to identify small molecule agonists of the estrogen receptor alpha (ER-alpha) signaling pathway (AID 743075);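 further: HEK293 GripTite cells with ER-alpha and UAS-driven beta-lactamase reporter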
Experimental setup: HEK293 ER-alpha-UAS-bla, beta-lactamase FRET ratio, 18 h; series mostly up to 70.1 µM
The source made the active and inactive calls. The call rests on the fitted dose curve.
Outcome field: choose from True for active, False for inactive

Worked examples, 5 compounds total:
{"columns": ["Compound", "Group"],
 "data": [
  ["NCCCN(CCO)CCO", "False"],
  ["CCOC(=O)C1=NN(c2ccccc2)C(=O)C1", "False"],
  ["SC1CCCC1", "False"],
  ["CC(C)(C)c1cc(CCC(=O)OCC(COC(=O)CCc2cc(C(C)(C)C)c(O)c(C(C)(C)C)c2)(COC(=O)CCc2cc(C(C)(C)C)c(O)c(C(C)(C)C)c2)COC(=O)CCc2cc(C(C)(C)C)c(O)c(C(C)(C)C)c2)cc(C(C)(C)C)c1O", "True"],
  ["CCOC(=O)CC(=O)c1cc(F)c(Cl)nc1Cl", "False"]
]}

IN: Called result for CCCCC(CC)COCCCN (configuration not stated)
OUT: False

IN: Write down the call the test reported for this compound. Item: O=C(O)C1CCC(C(=O)O)CC1 (configuration not stated)
OUT: False

IN: Hey, what did the test say about "CCN1CCC[C@H]1CNC(=O)c1c(OC)ccc(Br)c1OC" ?
OUT: False

IN: For "O=C(O)Cc1sc(-c2ccccc2)nc1-c1ccc(Cl)cc1" , what call appears in the results of this test?
OUT: False

IN: How was "CC[C@H](C)[C@H](N)C(=O)O" classified in this test?
OUT: False

IN: Test call for this compound, please: "CC(=O)CC(=O)c1ccccc1"
OUT: False

IN: What did the test return for CC(C)NCC(O)COc1ccc(CC(N)=O)cc1 (configuration not stated) ?
OUT: False

----------
Method notes: qHTS RealTime-Glo MT Cell Viability Assay in HepG2 cells - 0 hour (AID 1224889); further: nearly all actives have a fitted effect of over 50% in size
Experimental setup: RealTime-Glo luminescence; series mostly up to 76.8 µM
Records with an inconclusive call do not appear. Calls of active or inactive are those of the source. The call rests on the fitted dose curve; in most records, active means well fitted cell-killing curve with a large enough effect in the repeat runs; inconclusive means weak or mixed curves, or effect the other way; inactive means flat fitted curve, though single readings scatter.
Measurement type: activity change, negative = cytotoxicity

Solved entries:
{"columns": ["Smiles representation", "Result"],
 "data": [
  ["O=C(O)C(c1ccc(Cl)cc1)c1ccc(Cl)cc1", "inactive"],
  ["CC(C)c1ccccc1C(C)C", "inactive"],
  ["N#CCc1cccc(C(F)(F)F)c1", "inactive"],
  ["C[Si](C)O[Si](C)(C)O[Si](C)(C)O[Si](C)C", "inactive"]
]}

Continue with the compound presented below.
IN: Name the recorded activity change, negative = cytotoxicity of the item "C=CC[N+]1([C@H]2C[C@H]3[C@@H]4CC[C@H]5C[C@H](OC(C)=O)[C@@H](N6CCCCC6)C[C@]5(C)[C@H]4CC[C@]3(C)[C@H]2OC(=O)CC)CCCCC1" in your answer.
OUT: inactive

----------
Method notes: qHTS assay to test for compound auto fluorescence at 535 nm (green) in HEK293 cells (AID 720680)
Experimental setup: green autofluorescence 485/535 nm; series mostly up to 91.3 µM
Activity calls are given as the source filed them. Calls come from the whole dose curve; as a rule, active = well fitted curve in the direction sought with a large enough effect in the repeat runs; inconclusive = weak or mixed curves; inactive = flat fitted curve, though single readings scatter.
Measurement type: fluorescence, % of fluorescein

Some solved entries appear below for comparison.
{"columns": ["Compound", "Measurement type", "Result"],
 "data": [
  ["CC(C)NCC(O)c1cc(O)cc(O)c1 (stereo unspecified)", "fluorescence, % of fluorescein", "inactive"],
  ["CCOc1ccc2[nH]cc(C(=O)NCc3ccccc3)c(=O)c2n1", "fluorescence, % of fluorescein", "inactive"],
  ["CCCCCCCC/C=C\\CCCCCCCC(N)=O", "fluorescence, % of fluorescein", "inactive"],
  ["Cc1cccc(Oc2ccccc2)c1", "fluorescence, % of fluorescein", "inactive"],
  ["COc1cc(C(C)(C)C)c(O)c(C(C)(C)C)c1", "fluorescence, % of fluorescein", "inactive"]
]}

Shift focus to the following entry.
IN: Provide only the value of recorded fluorescence, % of fluorescein for CCOC(=O)C1=C(C)NC(C)=C(C(=O)OC)C1c1cccc([N+](=O)[O-])c1 (stereo unspecified)
OUT: inactive
